Experiment: Primary qHTS for delayed death inhibitors of the malarial parasite plastid, 48 hour incubation
Conditions: P. falciparum luciferase growth in erythrocytes; series mostly up to 28.7 µM
Among all 310,000 compounds or so, about 18,000 (5.8%) were called active. Roughly 22% stayed inconclusive and do not appear here. The call rests on the fitted dose curve; in most records, active means well fitted inhibition curve with a large enough effect; inconclusive means small, poorly fitted or top-dose-only effect, or another doubt; inactive means no such curve, though single readings can be large or run the other way. The full list was thinned out, with actives kept by preference.
// classify into 1 for active, 0 for inactive

Query: Tell me the recorded outcome of this test for COc1cc(/C=C2\C(=N)N3N=C(CC(=O)N4CCOCC4)SC3=NC2=O)cc(OC)c1OC .
Reply: 0

Query: Tell me the recorded outcome of this test for COc1cccc(-c2noc(C3CCCN(C(=O)c4ccc(F)cc4)C3)n2)c1 (stereo unspecified) .
Reply: 0

Query: Tell me the recorded outcome of this test for CC(C)c1ccc(O)c(CN2CCN(c3ccccc3)CC2)c1 .
Reply: 1

Query: Tell me the recorded outcome of this test for O=C(O)c1ccc(S(=O)(=O)N2CCOCC2)o1 .
Reply: 0

Query: Tell me the recorded outcome of this test for Oc1cc2c(cc1CN1CCN(c3ccccc3)CC1)OCO2 .
Reply: 0

Query: Tell me the recorded outcome of this test for COc1cc(-c2noc(C3CCCN(S(=O)(=O)c4cccc(Cl)c4)C3)n2)cc(OC)c1OC (stereo unspecified) .
Reply: 1

---

Experiment: Primary qHTS for delayed death inhibitors of the malarial parasite plastid, 48 hour incubation
Conditions: P. falciparum luciferase growth in erythrocytes; series mostly up to 28.7 µM
The whole screen tested about 310,000 compounds, of which about 18,000 (5.8%) were called active. Roughly 22% stayed inconclusive and do not appear here. The call rests on the fitted dose curve; in most records, active means well fitted inhibition curve with a large enough effect; inconclusive means small, poorly fitted or top-dose-only effect, or another doubt; inactive means no such curve, though single readings can be large or run the other way. The full list was thinned out, with actives kept by preference.
// classify into true (active), false (inactive)

Query: Tell me the recorded outcome of this test for COc1ccc(N2CCN(S(=O)(=O)c3ccc4c(c3)N(C(C)=O)CCO4)CC2)cc1 .
Reply: false

Query: Tell me the recorded outcome of this test for Clc1ccc(CSc2nnc(/C=C/c3ccccc3)o2)c(Cl)c1 .
Reply: false

Query: Tell me the recorded outcome of this test for CSCc1cc(N(C)C)nc(SCc2ccc(Cl)cc2Cl)n1 .
Reply: true

Query: Tell me the recorded outcome of this test for CC(C)CCNC(=O)c1ccc2c(Cl)c3c(nc2c1)CCC3 .
Reply: false

Query: Tell me the recorded outcome of this test for CCOCc1nnc(NC(=O)CCS(=O)(=O)Cc2ccccc2)s1 .
Reply: false

Query: Tell me the recorded outcome of this test for Nc1cc(N)nc(SCc2ccc(Cl)cc2)n1 .
Reply: false

Query: Tell me the recorded outcome of this test for CC(C)Oc1ccc(S(=O)(=O)N2CCOCC2)cc1NC(=O)C1CCCC1 .
Reply: false

Query: Tell me the recorded outcome of this test for O=Cc1c(Nc2ccccc2Cl)nc2ccccn2c1=O .
Reply: false

Query: Tell me the recorded outcome of this test for Cn1c(=O)c2[nH]c(NCC3CCCO3)nc2n(-c2ccccc2)c1=O (configuration not stated) .
Reply: false

Query: Tell me the recorded outcome of this test for C[n+]1cc(-c2ccccc2)oc1-c1ccccc1 .
Reply: false

Query: Tell me the recorded outcome of this test for Cc1cc(NC(=O)COc2ccc([N+](=O)[O-])cc2)no1 .
Reply: false

Query: Tell me the recorded outcome of this test for CC(C)(CNC(=O)Cc1ccc(Cl)cc1Cl)N1CCOCC1 .
Reply: false

---

Assay: Primary qHTS for delayed death inhibitors of the malarial parasite plastid, 48 hour incubation
Details: P. falciparum luciferase growth in erythrocytes; series mostly up to 28.7 µM
The campaign covered roughly 310,000 compounds. About 18,000 (5.8%) were called active. About 22% were inconclusive and are not listed. The call rests on the fitted dose curve; in most records, active means well fitted inhibition curve with a large enough effect; inconclusive means small, poorly fitted or top-dose-only effect, or another doubt; inactive means no such curve, though single readings can be large or run the other way. Only a selection was taken, and actives are over-represented in it overall.
// classify into 1 for active, 0 for inactive

Query: Tell me the recorded outcome of this test for Cn1cncc1COC(=O)c1ccc(Cl)cc1 .
Reply: 0

Query: Tell me the recorded outcome of this test for CCCCCCCCn1c2c(c(=N)c3c1CCC3)CCCC2 .
Reply: 1

Query: Tell me the recorded outcome of this test for O=[N+]([O-])c1ccc(NC(=S)N2CCN(c3ccccn3)CC2)cc1 .
Reply: 0

Query: Tell me the recorded outcome of this test for C/C(=N\NC(=O)Cc1ccc(Cl)cc1)c1ccccn1 .
Reply: 1

Query: Tell me the recorded outcome of this test for CCN1C(=NCCc2cccnc2)N[C@@H](c2ccccc2)C(C(=O)OC)=C1C .
Reply: 0

Query: Tell me the recorded outcome of this test for CC1CC(=S)Nc2ccccc2N1Cc1ccccc1 (stereo not drawn) .
Reply: 1

Query: Tell me the recorded outcome of this test for COc1ccc(C/C(C)=N/NC(=O)c2ccncc2)cc1 .
Reply: 0

Query: Tell me the recorded outcome of this test for CSCCC(NC(=O)c1ccccc1)C(=O)N1CCN(Cc2ccc(Cl)cc2)CC1 (stereo not drawn) .
Reply: 1

Query: Tell me the recorded outcome of this test for C/C(=N\NC(=O)Cc1ccc(F)cc1)c1ccc(F)cc1 .
Reply: 0

Query: Tell me the recorded outcome of this test for COC(=O)c1ccc(CN2CCN(CCCc3ccccc3)C(CCO)C2)cc1 (stereo not drawn) .
Reply: 0

Query: Tell me the recorded outcome of this test for C/C(=N\NC(=O)c1ccccc1F)c1ccccn1 .
Reply: 0

Query: Tell me the recorded outcome of this test for COc1ccccc1C(=O)NC(CCSC)C(=O)N1CCN(C(C)=O)CC1 (stereo not drawn) .
Reply: 0

Query: Tell me the recorded outcome of this test for COc1ccc(CC(=O)N/N=C(\C)c2ccccn2)cc1 .
Reply: 1

Query: Tell me the recorded outcome of this test for CCN1CCN(C(=O)C2CCN(S(=O)(=O)c3cc(Cl)ccc3Cl)CC2)CC1 .
Reply: 0

Query: Tell me the recorded outcome of this test for CC1CC(=O)Nc2ccccc2N1S(=O)(=O)c1cccs1 (stereo not drawn) .
Reply: 0

Query: Tell me the recorded outcome of this test for CC(=O)N(Cc1cc(=O)[nH]c2ccccc12)c1ccc(C)cc1C .
Reply: 0

Query: Tell me the recorded outcome of this test for CSCCC(NC(=O)c1ccccc1)C(=O)N1CCCCCCC1 (stereo not drawn) .
Reply: 0

Query: Tell me the recorded outcome of this test for Clc1ccc(C2[C@H]3CN(CC4CCCCC4)[C@H](c4ccccc4)C34CC2(c2cccnc2)C4)cn1 (stereo partly drawn) .
Reply: 1

Query: Tell me the recorded outcome of this test for COC(=O)c1ccc(C23CC4(C2)[C@H](CN(Cc2cccnc2)[C@@H]4c2ccccc2)C3c2ccc(Cl)nc2)cc1 (stereo partly drawn) .
Reply: 1

Query: Tell me the recorded outcome of this test for CCOc1cccc2cc(C(=O)OCC(=O)Nc3c(C)cccc3CC)c(=O)oc12 .
Reply: 0

Query: Tell me the recorded outcome of this test for Cc1ccc(N(Cc2cc(=O)[nH]c3ccccc23)C(=O)CCl)cc1 .
Reply: 1

Query: Tell me the recorded outcome of this test for Cc1ccc(S(=O)(=O)N2CC(C)N(S(C)(=O)=O)C2)cc1 (stereo not drawn) .
Reply: 0

Query: Tell me the recorded outcome of this test for COc1ccc(Cl)cc1NC(=O)CCN1CCOCC1 .
Reply: 0

FYI, the data here is from PubChem BioAssay AID504832.
